# Target Or Test System: cellular tyrosinase (Mus musculus)
# Construct: the harvested cells were lysed in cell extraction buffer; endogenous in cells; host or cells: B16F10 murine melanoma cells, UVA/UVB-induced
# Sequence (P11344 19-533): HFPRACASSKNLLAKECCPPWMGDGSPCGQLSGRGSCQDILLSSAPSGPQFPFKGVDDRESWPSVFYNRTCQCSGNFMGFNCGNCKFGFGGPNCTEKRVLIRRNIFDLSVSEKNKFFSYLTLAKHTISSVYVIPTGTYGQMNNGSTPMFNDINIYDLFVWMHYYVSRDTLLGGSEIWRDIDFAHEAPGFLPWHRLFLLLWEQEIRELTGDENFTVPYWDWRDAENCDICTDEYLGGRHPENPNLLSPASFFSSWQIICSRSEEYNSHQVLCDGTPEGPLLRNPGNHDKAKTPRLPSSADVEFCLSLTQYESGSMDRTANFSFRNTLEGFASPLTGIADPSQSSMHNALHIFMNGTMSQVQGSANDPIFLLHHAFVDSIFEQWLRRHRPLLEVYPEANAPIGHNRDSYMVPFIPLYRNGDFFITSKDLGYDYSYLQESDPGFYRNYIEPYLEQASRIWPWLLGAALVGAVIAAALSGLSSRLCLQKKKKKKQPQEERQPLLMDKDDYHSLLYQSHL
# Procedure Details: Intracellular (cellular) tyrosinase activity assay in UV-induced B16F10 cells
# Type: cell-based, murine
# Experimental Parameters: 70 μM peptide, UVA/UVB-induced B16F10 cells, triplicate
Where a SMILES comes first, the peptide text is derived from it.
Measured Property: inhibition of cellular tyrosinase

So what does the record say about inhibition of cellular tyrosinase for C[C@H](NC(=O)[C@@H](N)CO)C(=O)N1CCC[C@H]1C(=O)N[C@H](C(=O)N[C@@H](Cc1ccccc1)C(=O)N[C@@H](Cc1ccccc1)C(=O)N[C@@H](CCCNC(=N)N)C(=O)O)[C@@H](C)O [RF1] (H-SAPTFFR-OH; N-terminus and C-terminus assumed) ? 18.26%
